System: Pseudomonas aeruginosa
TEST PROTOCOL: Antimicrobial activity against Pseudomonas aeruginosa ATCC 27853 at 1 mg/ml incubated for 24 hrs by cup diffusion assay
Assay type: functional
CONDITION: ATCC 27853, 24 h, read-out: DIZ
// reported zone of inhibition at 1000 µg/mL for each item listed
The figure you give is taken to be in mm; do not add the unit.

Answered cases to consult:
* CO/N=C(\C(=O)N[C@@H]1C(=O)N2C(C(=O)O)=C(COC(C)=O)CS[C@H]12)c1csc(N)n1 | 18
* Cc1cc(C)n(C(=O)c2[nH]nc(-c3ccc(Cl)cc3)c2N)n1 | 20
* Cc1nc(Cl)c2[nH]nc(-c3ccc(Cl)cc3)c2n1 | 10

Provide only the value of recorded zone of inhibition at 1000 µg/mL for "Cc1nn(C(=O)c2[nH]nc(-c3ccc(Cl)cc3)c2N)c(C)c1Cl" 13

Provide only the value of recorded zone of inhibition at 1000 µg/mL for "NC(=S)NNC(=O)c1[nH]nc(-c2ccc(Cl)cc2)c1N" 16

Provide only the value of recorded zone of inhibition at 1000 µg/mL for "CC1=NN(C(=O)c2[nH]nc(-c3ccc(Cl)cc3)c2N)C(=O)C1" 20

Provide only the value of recorded zone of inhibition at 1000 µg/mL for "Nn1c(=S)[nH]c2c(-c3ccc(Cl)cc3)n[nH]c2c1=O" 10

Provide only the value of recorded zone of inhibition at 1000 µg/mL for "Cc1nc2c(-c3ccc(Cl)cc3)n[nH]c2c2nnnn12" 8

Provide only the value of recorded zone of inhibition at 1000 µg/mL for "Cc1csc(NNC(=O)c2[nH]nc(-c3ccc(Cl)cc3)c2N)n1" 12

====

Test system: Aspergillus flavus
TEST PROTOCOL: Antimicrobial activity against Aspergillus flavus ATCC 23554 incubated for 24 hrs by CLSI/NCCLS protocol based method
Type: functional
CONDITION: ATCC 23554, 24 h
// reported MIC for each item listed
The figure you give is taken to be in µg/mL; do not add the unit.

Answered cases to consult:
- CC1=NN(C(=O)c2[nH]nc(-c3ccc(Cl)cc3)c2N)C(=O)C1: 40
- NC(=S)NNC(=O)c1[nH]nc(-c2ccc(Cl)cc2)c1N: 45
- Cc1nn(C(=O)c2[nH]nc(-c3ccc(Cl)cc3)c2N)c(C)c1Cl: 50
- Cc1csc(NNC(=O)c2[nH]nc(-c3ccc(Cl)cc3)c2N)n1: 45

Please examine the following record next.
Provide only the value of recorded MIC for "Nn1c(=S)[nH]c2c(-c3ccc(Cl)cc3)n[nH]c2c1=O" 40

====

// reported zone of inhibition at 1000 µg/mL for each item listed
Tested on: Lactococcus lactis
TEST PROTOCOL: Antimicrobial activity against Streptococcus lactis ATCC 14591 at 1 mg/ml incubated for 24 hrs by cup diffusion assay
Format: functional
CONDITION: ATCC 14591, 24 h, read-out: DIZ
The figure you give is taken to be in mm; do not add the unit.

Answered cases to consult:
- NC(=S)NNC(=O)c1[nH]nc(-c2ccc(Cl)cc2)c1N: 30
- Cc1nc(Cl)c2[nH]nc(-c3ccc(Cl)cc3)c2n1: 15
- Cc1nn(C(=O)c2[nH]nc(-c3ccc(Cl)cc3)c2N)c(C)c1Cl: 16

Provide only the value of recorded zone of inhibition at 1000 µg/mL for "Cc1csc(NNC(=O)c2[nH]nc(-c3ccc(Cl)cc3)c2N)n1" 22

Provide only the value of recorded zone of inhibition at 1000 µg/mL for "Cc1cc(C)n(C(=O)c2[nH]nc(-c3ccc(Cl)cc3)c2N)n1" 30

Provide only the value of recorded zone of inhibition at 1000 µg/mL for "Cc1nc2c(-c3ccc(Cl)cc3)n[nH]c2c2nnnn12" 20

Provide only the value of recorded zone of inhibition at 1000 µg/mL for "Nn1c(=S)[nH]c2c(-c3ccc(Cl)cc3)n[nH]c2c1=O" 15

Provide only the value of recorded zone of inhibition at 1000 µg/mL for "CC1=NN(C(=O)c2[nH]nc(-c3ccc(Cl)cc3)c2N)C(=O)C1" 26

Provide only the value of recorded zone of inhibition at 1000 µg/mL for "CO/N=C(\C(=O)N[C@@H]1C(=O)N2C(C(=O)O)=C(COC(C)=O)CS[C@H]12)c1csc(N)n1" 30

Taken from ChEMBL document CHEMBL3792355.
